Tested on: mice
Experiment: Summary of in vivo Immunogenicity Studies (Table IV)
Set-up: species or system mouse
Conditions: grades − to + + + +, key not given
READOUT_TYPE: Immunogenicity in mice

>>> print(df.to_string())
                              item_sequence  result_value
0  RRHHRRSKAKRSRSVYDFFVWL [hPER1, no linker, TRP-2]           + +
1  RQIKIWFQNRRMKWKKLKTWGQYWQV [AntpHD, linker L, gp100-154]         + + +
2  SVYDFFVWL [TRP2 peptide, unconjugated, reference compound]           + +
3  RQIKIWFQNRRMKWKKFVYVWKTWGQYWQV [AntpHD, linker FVYVW, gp100-154]       + + + +
4  RRHHRRSKAKRSRDEVWELSIINFEKL [hPER1, linker DEVWEL, OVA]       + + + +
5  RRHHRRSKAKRSRFVYVWSIINFEKL [hPER1, linker FVYVW, OVA]       + + + +

Query Immunogenicity in mice for RRHHRRSKAKRSRFVYVWSVYDFFVWL [hPER1, linker FVYVW, TRP-2]
+ + +

Kindly indicate its recorded Immunogenicity in mice. Item: RRHHRRSKAKRSRLSVYDFFVWL [hPER1, linker L, TRP2]
+ +
